Biological target: T1, human neuropeptide Y2 (NPY2) receptor (human, UniProt P49146 1-381)
T1 sequence (looked up): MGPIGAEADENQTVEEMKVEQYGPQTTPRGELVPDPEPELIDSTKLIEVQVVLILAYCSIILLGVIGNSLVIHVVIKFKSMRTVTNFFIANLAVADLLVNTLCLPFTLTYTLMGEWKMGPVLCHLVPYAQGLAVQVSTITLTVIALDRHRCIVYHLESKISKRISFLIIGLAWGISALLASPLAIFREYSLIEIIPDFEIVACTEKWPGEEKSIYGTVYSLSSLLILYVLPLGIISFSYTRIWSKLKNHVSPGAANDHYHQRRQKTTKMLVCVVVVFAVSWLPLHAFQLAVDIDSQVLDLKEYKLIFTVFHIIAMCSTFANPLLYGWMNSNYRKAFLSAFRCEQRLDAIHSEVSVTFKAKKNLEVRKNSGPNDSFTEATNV
Test: cell-based or functional assay
Non-standard residues stand in square brackets, D forms with d. No end group written: not given here. Aib = CC(C)(N)C(=O)O
RECORDED ENDPOINT: EC50, CreLuc assay, 0.5% hP

1) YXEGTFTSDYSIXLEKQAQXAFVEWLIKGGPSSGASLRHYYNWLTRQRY (Aib at 2, 13, 20; NMeQ 47; K28 side chain: C20DA-gGlu-gGlu-gGlu-gGlu-gGlu-gGlu-eLys; C-terminal NH2) [Compound 85]    10.3 nM
2) YXEGTFTSDYSIXLEKEKQXAFVEWLIKGGPSSGASLRHYYNWLTRQRY (Aib at 2, 13, 20; K28 side chain: C20DA-gGlu-gGlu-gGlu-gGlu-gGlu-gGlu-eLys; C-terminal NH2) [Compound 69]    8.41 nM
3) Y[Aib]EGTFTSDYSI[Aib]LEKQAQ[Aib]AFVQWLIKGGQRYYASLRHYYNWLTRQRY-NH2 (not fully specified (residue 28); also: TFA salt) [Compound 6]    16.9 nM
